Target: KRAS(G12C) (Homo sapiens, UniProt P01116, G12C)
Sequence (P01116 1-188 isoform P01116-2 G12C): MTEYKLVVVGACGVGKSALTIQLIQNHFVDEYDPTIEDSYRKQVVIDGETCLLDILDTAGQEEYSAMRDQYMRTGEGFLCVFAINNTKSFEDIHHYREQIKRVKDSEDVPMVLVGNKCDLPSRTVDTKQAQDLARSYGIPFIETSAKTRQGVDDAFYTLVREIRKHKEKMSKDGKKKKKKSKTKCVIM
Experiment: biochemical
Type: binding
Settings: 20 nM KRAS(G12C), 1 M urea, 120 min at room temperature; read-out: Chemical stability IC50
ENDPOINT: IC50
Answer with the value and then the unit.

// fetch IC50 given entry "C=CC(=O)N1CCN(c2nc(OC[C@@H]3CCCN3C)nc3c(F)c(-c4nc(N)cc(C)c4C(F)(F)F)c(Cl)cc23)[C@@H](C)C1"
5.9 nM

###

Target: NRAS(G12C) (Homo sapiens, UniProt P01111, G12C)
Sequence (P01111 1-169 G12C): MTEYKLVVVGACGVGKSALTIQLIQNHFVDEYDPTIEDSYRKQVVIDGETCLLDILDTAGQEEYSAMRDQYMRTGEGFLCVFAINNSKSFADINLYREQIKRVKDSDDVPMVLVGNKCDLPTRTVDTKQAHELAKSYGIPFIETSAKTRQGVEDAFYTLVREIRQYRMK
Assay: biochemical
Conditions: 10 nM NRAS(G12C), 5 nM SOScat, 15 min preincubation; read-out: Nucleotide exchange IC50
ENDPOINT: IC50 (nM)
Reply numerically in nM, unit not repeated.

C=CC(=O)N1CCN(c2nc(OC[C@@H]3CCCN3C)nc3c(F)c(-c4nc(N)cc(C)c4C(F)(F)F)c(Cl)cc23)[C@@H](C)C1 [GDC-6036, divarasib]
29.8

// fetch IC50 given entry C=CC(=O)N1CCN2C(=O)c3cc(F)c(-c4ccc(F)c5sc(N)c(C#N)c45)c(Cl)c3OCC[C@H]2C1 [LY3537982, olomorasib]
0.16
